- Measured target: human SSTR2 (Homo sapiens)
- Construct: expressed in transfected cells; host or cells: CHO-K1 cells and CCL39 cells
- Sequence (P30874 whole entry): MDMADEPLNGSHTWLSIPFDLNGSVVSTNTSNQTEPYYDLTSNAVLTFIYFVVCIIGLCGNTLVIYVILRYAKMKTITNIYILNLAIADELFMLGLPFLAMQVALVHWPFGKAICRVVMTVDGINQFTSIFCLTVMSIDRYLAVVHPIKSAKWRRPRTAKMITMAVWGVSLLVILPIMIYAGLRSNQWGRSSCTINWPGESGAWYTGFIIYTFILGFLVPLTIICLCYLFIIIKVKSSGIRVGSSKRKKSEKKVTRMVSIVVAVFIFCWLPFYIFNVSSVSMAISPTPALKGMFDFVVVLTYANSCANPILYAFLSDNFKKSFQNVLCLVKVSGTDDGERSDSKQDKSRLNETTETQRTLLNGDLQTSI
- Experiment notes: Displacement of 125I-[Leu8,D-Trp22,Tyr25]-SRIF-28 from cloned SSTR2 (receptor autoradiography)
- Format: binding
- Condition set: read-out: IC50 (nM) mSSTR2
Where a SMILES comes first, the peptide text is derived from it. Bridges are numbered along the chain shown (N, C = ends). [ ]: non-standard residue; d: D form. The star is where a group is joined. Phe(4-CH2NHiPr) = CC(C)NCc1ccc(C[C@H](N)C(=O)O)cc1; X3 = NC(=O)N[C@@H](Cc1ccc(O)c(I)c1)C(=O)*; NMeS = CN[C@@H](CO)C(=O)O
This section presents compounds with their documented IC50 values.
Measured parameter: IC50

Compound	Measured target	Reported
CC(C)NCc1ccc(C[C@@H]2NC(=O)[C@@H](Cc3c[nH]c4ccccc34)NC(=O)[C@H](Cc3ccccc3)NC(=O)[C@H](Cc3ccccc3)NC(=O)[C@H](CCCCN)NC(=O)[C@@H](NC(=O)[C@H](Cc3ccc(O)c(I)c3)NC(N)=O)CSSC[C@@H](C(=O)O)NC(=O)[C@H](CO)NC(=O)[C@H]([C@@H](C)O)NC(=O)[C@H](Cc3ccccc3)NC(=O)[C@H]([C@@H](C)O)NC2=O)cc1 [Peptide No. 14B] (X3-CKFF[dW][Phe(4-CH2NHiPr)]TFTSC-OH; disulfide 1-11)	human SSTR2 (Homo sapiens)	> 1000 nM
CC(C)NCc1ccc(C[C@@H]2NC(=O)[C@@H](Cc3c[nH]c4ccccc34)NC(=O)[C@H](Cc3ccccc3)NC(=O)[C@H](Cc3ccccc3)NC(=O)[C@H](CCCCN)NC(=O)[C@@H](N)CSSC[C@@H](C(=O)O)NC(=O)[C@H](CO)N(C)C(=O)[C@H]([C@@H](C)O)NC(=O)[C@H](Cc3ccccc3)NC(=O)[C@H]([C@@H](C)O)NC2=O)cc1 [Peptide No. 22A] (H-CKFF[dW][Phe(4-CH2NHiPr)]TFT[NMeS]C-OH; disulfide 1-11)	human SSTR2 (Homo sapiens)	> 10000 nM

====

- Measured target: human SSTR3 (Homo sapiens, UniProt P32745)
- Construct: expressed in transfected cells; host or cells: CHO-K1 cells and CCL39 cells
- Sequence (P32745 whole entry): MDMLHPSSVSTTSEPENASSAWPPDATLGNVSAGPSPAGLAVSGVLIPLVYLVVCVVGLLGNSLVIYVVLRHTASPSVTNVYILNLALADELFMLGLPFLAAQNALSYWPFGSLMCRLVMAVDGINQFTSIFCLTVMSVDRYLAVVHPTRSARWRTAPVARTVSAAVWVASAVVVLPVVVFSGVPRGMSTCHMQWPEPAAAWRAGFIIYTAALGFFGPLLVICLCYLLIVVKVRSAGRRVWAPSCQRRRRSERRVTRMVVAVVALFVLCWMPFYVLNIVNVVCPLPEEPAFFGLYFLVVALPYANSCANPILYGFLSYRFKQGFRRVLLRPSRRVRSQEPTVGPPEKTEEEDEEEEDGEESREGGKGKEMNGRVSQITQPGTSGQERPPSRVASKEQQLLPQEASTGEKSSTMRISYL
- Experiment notes: Displacement of 125I-[Leu8,D-Trp22,Tyr25]-SRIF-28 from cloned SSTR3 (receptor autoradiography)
- Type: binding
- Condition set: read-out: IC50 (nM) mSSTR3
Where a SMILES comes first, the peptide text is derived from it. Bridges are numbered along the chain shown (N, C = ends). [ ]: non-standard residue; d: D form. NMePhe(4-CH2NHiPr) = CN[C@@H](Cc1ccc(CNC(C)C)cc1)C(=O)O

Compound	IC50
CC(C)NCc1ccc(C[C@H]2C(=O)N[C@@H]([C@@H](C)O)C(=O)N[C@@H](Cc3ccccc3)C(=O)N[C@@H]([C@@H](C)O)C(=O)N[C@@H](CO)C(=O)N[C@H](C(=O)O)CSSC[C@H](NC(=O)[C@@H](N)Cc3ccc(O)cc3)C(=O)N[C@@H](CCCCN)C(=O)N[C@@H](Cc3ccccc3)C(=O)N[C@@H](Cc3ccccc3)C(=O)N[C@H](Cc3c[nH]c4ccccc34)C(=O)N2C)cc1 [Peptide No. 27] (H-YCKFF[dW][NMePhe(4-CH2NHiPr)]TFTSC-OH; disulfide 2-12)	> 1000 nM

====

- Measured target: human SSTR3 (Homo sapiens)
- Construct: expressed in transfected cells; host or cells: CHO-K1 cells and CCL39 cells
- Experiment notes: Displacement of 125I-[Leu8,D-Trp22,Tyr25]-SRIF-28 from cloned SSTR3 (receptor autoradiography)
- Type: binding
- Condition set: read-out: IC50 (nM) mSSTR3
Where a SMILES comes first, the peptide text is derived from it. Bridges are numbered along the chain shown (N, C = ends). [ ]: non-standard residue; d: D form. The star is where a group is joined. NMePhe(4-CH2NHiPr) = CN[C@@H](Cc1ccc(CNC(C)C)cc1)C(=O)O; Tyr(Nα-carbamoyl) = NC(=O)N[C@@H](Cc1ccc(O)cc1)C(=O)*; Phe(4-CH2NHiPr) = CC(C)NCc1ccc(C[C@H](N)C(=O)O)cc1; d2Nal = N[C@H](Cc1ccc2ccccc2c1)C(=O)O
This section presents compounds with their documented IC50 values.
Measured parameter: IC50 (nM)

Compound	Unit	Readout relation	Reported
CC(C)NCc1ccc(C[C@@H]2NC(=O)[C@@H](Cc3c[nH]c4ccccc34)NC(=O)[C@H](Cc3ccccc3)NC(=O)[C@H](Cc3ccccc3)NC(=O)[C@H](CCCCN)NC(=O)[C@@H](NC(=O)[C@H](Cc3ccc(O)cc3)NC(N)=O)CSSC[C@@H](C(=O)O)NC(=O)[C@H](CO)NC(=O)[C@H]([C@@H](C)O)NC(=O)[C@H](Cc3ccccc3)NC(=O)[C@H]([C@@H](C)O)NC2=O)cc1 [Peptide No. 14A] ({Tyr(Nα-carbamoyl)}-CKFF[dW][Phe(4-CH2NHiPr)]TFTSC-OH; disulfide 1-11)	nM	=	500
CC(C)NCc1ccc(C[C@H]2C(=O)N[C@@H]([C@@H](C)O)C(=O)N[C@@H](Cc3ccccc3)C(=O)N[C@@H]([C@@H](C)O)C(=O)N[C@@H](CO)C(=O)N[C@H](C(=O)O)CSSC[C@H](N)C(=O)N[C@@H](CCCCN)C(=O)N[C@@H](Cc3ccccc3)C(=O)N[C@@H](Cc3ccccc3)C(=O)N[C@H](Cc3ccc4ccccc4c3)C(=O)N2C)cc1 [Peptide No. 15] (H-CKFF[d2Nal][NMePhe(4-CH2NHiPr)]TFTSC-OH; disulfide 1-11)	nM	>	1000

====

This section presents molecules with their documented IC50 values.
- Measured target: human SSTR1 (Homo sapiens)
- Construct: expressed in transfected cells; host or cells: CHO-K1 cells and CCL39 cells
- Sequence (P30872 whole entry): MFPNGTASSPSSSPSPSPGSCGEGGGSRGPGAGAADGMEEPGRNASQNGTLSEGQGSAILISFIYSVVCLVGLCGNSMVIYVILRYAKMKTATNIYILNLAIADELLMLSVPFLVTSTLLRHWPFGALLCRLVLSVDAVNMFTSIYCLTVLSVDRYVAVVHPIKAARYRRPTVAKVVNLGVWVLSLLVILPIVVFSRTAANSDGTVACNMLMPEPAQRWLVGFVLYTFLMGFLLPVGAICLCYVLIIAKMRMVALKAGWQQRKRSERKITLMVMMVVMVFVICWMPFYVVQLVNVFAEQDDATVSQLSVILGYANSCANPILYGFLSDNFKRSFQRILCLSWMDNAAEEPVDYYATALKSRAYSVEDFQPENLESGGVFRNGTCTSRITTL
- Experiment notes: Displacement of 125I-[Leu8,D-Trp22,Tyr25]-SRIF-28 from cloned SSTR1 (receptor autoradiography)
- Type: binding
- Condition set: displacement of iodinated SRIF-28 radioligand; read-out: IC50 / binding affinity at human SSTR1
- Protocol: Generally, recombinant cells expressing the receptor are washed and homogenized to prepare a crude protein homogenate that is frozen, embedded and then cut in 10–20 μm thin sections, as known in this art. Candidate substances, such as potential SRIF agonists and antagonists, are incubated with the tissue sections, and the interaction between the candidate substance and the receptor polypeptide is monitored. […]
*1 amine or outer side, *2 acyl side, *3 side chain or, on linkers, in order; H or OH if unused. Where a SMILES comes first, the peptide text is derived from it. Bridges are numbered along the chain shown (N, C = ends). [ ]: non-standard residue; d: D form. NMePhe(4-CH2NHiPr) = CN[C@@H](Cc1ccc(CNC(C)C)cc1)C(=O)O; Phe(4-CH2NHiPr) = CC(C)NCc1ccc(C[C@H](N)C(=O)O)cc1; X1 = NC(=O)N[C@@H](CS[*:2])C(=O)[*:1]; d2Nal = N[C@H](Cc1ccc2ccccc2c1)C(=O)O

Molecule	IC50
CC(C)NCc1ccc(C[C@@H]2NC(=O)[C@@H](Cc3c[nH]c4ccccc34)NC(=O)[C@H](Cc3ccccc3)NC(=O)[C@H](Cc3ccccc3)NC(=O)[C@H](CCCCN)NC(=O)[C@@H](NC(N)=O)CSSC[C@@H](C(=O)O)NC(=O)[C@H](CO)NC(=O)[C@H]([C@@H](C)O)NC(=O)[C@H](Cc3ccc(O)cc3)NC(=O)[C@H]([C@@H](C)O)NC2=O)cc1 [Peptide No. 12A] (KFF[dW][Phe(4-CH2NHiPr)]TYTSC-OH; linker N-10 via X1)	8.1 nM
CC(C)NCc1ccc(C[C@H]2C(=O)N[C@@H]([C@@H](C)O)C(=O)N[C@@H](Cc3ccc(O)cc3)C(=O)N[C@@H]([C@@H](C)O)C(=O)N[C@@H](CO)C(=O)N[C@H](C(=O)O)CSSC[C@H](N)C(=O)N[C@@H](CCCCN)C(=O)N[C@@H](Cc3ccccc3)C(=O)N[C@@H](Cc3ccccc3)C(=O)N[C@H](Cc3ccc4ccccc4c3)C(=O)N2C)cc1 [Peptide No. 9A] (H-CKFF[d2Nal][NMePhe(4-CH2NHiPr)]TYTSC-OH; disulfide 1-11)	~21 nM
CC(C)NCc1ccc(C[C@H]2C(=O)N[C@@H]([C@@H](C)O)C(=O)N[C@@H](Cc3ccccc3)C(=O)N[C@@H]([C@@H](C)O)C(=O)N[C@@H](CO)C(=O)N[C@H](C(=O)O)CSSC[C@H](N)C(=O)N[C@@H](CCCCN)C(=O)N[C@@H](Cc3ccccc3)C(=O)N[C@@H](Cc3ccccc3)C(=O)N[C@H](Cc3c[nH]c4ccccc34)C(=O)N2C)cc1 [Peptide No. 13] (H-CKFF[dW][NMePhe(4-CH2NHiPr)]TFTSC-OH; disulfide 1-11)	~8.7 nM
